# assay_method_text: Cytotoxicity against human HaCaT cells assessed as cell survival rate at 400 uM after 24 hrs by MTT assay
# Assay type: cell-based
# condition_label: read-out: Survival
measured_endpoint: viability at 24 h, 400 µM (%)
Please state the figure in %; there is no need to write the unit.

Bench note: what viability at 24 h, 400 µM did COc1cc(-c2oc3cc(O)cc(O)c3c(=O)c2O)ccc1O [ISORHAMNETIN] show?
66

----------
# assay_method_text: Cytotoxicity against mouse NIH/3T3 cells assessed as cell survival rate at 16 uM after 24 hrs by MTT assay
# Assay type: cell-based, NIH3T3
# condition_label: read-out: Survival
measured_endpoint: viability at 24 h, 16 µM
# include the unit after the value

Bench note: what viability at 24 h, 16 µM did CO[C@H]1/C=C/O[C@@]2(C)Oc3c(C)c(O)c4c(O)c(c(/C=N/N5CCN(C)CC5)c(O)c4c3C2=O)NC(=O)/C(C)=C\C=C\[C@H](C)[C@H](O)[C@@H](C)[C@@H](O)[C@@H](C)[C@H](OC(C)=O)[C@@H]1C show?
62%

----------
# assay_method_text: Cytotoxicity against mouse NIH/3T3 cells assessed as cell survival rate at 400 uM after 24 hrs by MTT assay
# Assay type: cell-based, NIH3T3
# condition_label: read-out: Survival
measured_endpoint: viability at 24 h, 400 µM
# include the unit after the value

Bench note: what viability at 24 h, 400 µM did COc1cc(-c2oc3cc(O)cc(O)c3c(=O)c2O)ccc1O [ISORHAMNETIN] show?
58%

----------
# assay_method_text: Cytotoxicity against human HaCaT cells assessed as cell survival rate at 316 uM after 24 hrs by MTT assay
# Type: cell-based
# condition_label: read-out: Survival
measured_endpoint: viability at 24 h, 316 µM (%)
Please state the figure in %; there is no need to write the unit.

Bench note: what viability at 24 h, 316 µM did COc1cc(-c2oc3cc(O)cc(O)c3c(=O)c2O)ccc1O show?
71

----------
# assay_method_text: Cytotoxicity against mouse NIH/3T3 cells assessed as cell survival rate at 158 uM after 24 hrs by MTT assay
# Assay type: cell-based, NIH3T3
# condition_label: read-out: Survival
measured_endpoint: viability at 24 h, 158 µM (%)
Please state the figure in %; there is no need to write the unit.

Bench note: what viability at 24 h, 158 µM did COc1cc(-c2oc3cc(O)cc(O)c3c(=O)c2O)ccc1O show?
78
